assay system: tissue transglutaminase (TG2) (Homo sapiens)
Construct: purchased Zedira T036 (kit)
assay comment: Comparative transglutaminase selectivity assay with casein and dansylcadaverine as substrates (kit T036): TG2
Type: biochemical
condition notes: casein as substrate (apparent IC50)
observable: pIC50
Give bare numbers, as −log10 of the molar value.

Example compounds with recorded pIC50:
COC(=O)/C=C/CC[C@H](NC(C)=O)C(=O)Nc1cccn(CC(=O)N2CCCC(C)C2)c1=O (stereo partly shown); 5.52
CCOC(=O)/C=C/CC[C@H](NC(=O)c1cncn1C)C(=O)Nc1cccn(CC(=O)NCC(CC)CC)c1=O; 5.81
CCC(CC)CNC(=O)Cn1cccc(NC(=O)[C@H](CC/C=C/C(=O)OC)NC(C)=O)c1=O; 6.40

API: the following record is the query input.
Asked: Value lookup for pIC50; key = CCOC(=O)/C=C/CC[C@H](NC(C)=O)C(=O)Nc1cccn(CC(=O)NCCC(CC)CC)c1=O
Given back: 5.15

* * *

assay system: FXIII (plasma transglutaminase, factor XIII) (Homo sapiens, UniProt P00488)
Sequence (P00488 whole entry): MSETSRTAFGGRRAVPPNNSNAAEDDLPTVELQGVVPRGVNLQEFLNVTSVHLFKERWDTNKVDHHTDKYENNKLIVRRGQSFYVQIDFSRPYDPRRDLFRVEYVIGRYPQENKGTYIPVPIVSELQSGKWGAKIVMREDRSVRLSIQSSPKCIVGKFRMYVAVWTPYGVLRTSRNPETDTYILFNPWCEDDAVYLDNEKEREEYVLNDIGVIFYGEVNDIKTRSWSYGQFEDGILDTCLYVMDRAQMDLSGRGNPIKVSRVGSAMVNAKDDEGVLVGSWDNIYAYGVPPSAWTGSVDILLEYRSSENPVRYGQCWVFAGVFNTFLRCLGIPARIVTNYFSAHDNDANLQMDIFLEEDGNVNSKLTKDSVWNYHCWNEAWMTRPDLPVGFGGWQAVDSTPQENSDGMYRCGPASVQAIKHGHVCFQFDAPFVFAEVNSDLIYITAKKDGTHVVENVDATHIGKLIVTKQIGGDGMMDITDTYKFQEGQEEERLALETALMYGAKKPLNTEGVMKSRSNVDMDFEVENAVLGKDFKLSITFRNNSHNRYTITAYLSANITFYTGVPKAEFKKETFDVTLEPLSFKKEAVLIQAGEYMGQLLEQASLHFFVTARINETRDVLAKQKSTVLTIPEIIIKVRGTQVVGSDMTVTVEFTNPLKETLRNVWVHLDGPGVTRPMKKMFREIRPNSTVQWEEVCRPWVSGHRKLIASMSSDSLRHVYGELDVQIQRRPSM
assay comment: Comparative transglutaminase selectivity assay with casein and dansylcadaverine as substrates: FXIII
condition notes: casein as substrate
Hi there, I'd appreciate the recorded IC50 for every entry that follows.
Answers are plain numbers, in µM.

CCOC(=O)/C=C/CC[C@H](NC(=O)c1cncn1C)C(=O)Nc1cccn(CC(=O)N[C@H](C(=O)O)[C@H](C)CC)c1=O [A53]; 77.7
COC(=O)/C=C/CC[C@H](NC(C)=O)C(=O)Nc1cccn(CC(=O)N2CCCC(C)C2)c1=O (some centres unmarked) [A64]; 120
CCOC(=O)/C=C/CC[C@H](NC(C)=O)C(=O)Nc1cccn(CC(=O)N[C@H](C(=O)OC)[C@H](C)CC)c1=O [A35]; 70.7
CCOC(=O)/C=C/CC[C@H](NC(C)=O)C(=O)Nc1cccn(CC(=O)NCCC(C)C)c1=O [A7]; 105
CCOC(=O)/C=C/CC[C@H](NC(=O)CCC(=O)O)C(=O)Nc1cccn(CC(=O)NCCC(C)C)c1=O [A24]; 133

For the 3 compounds below, give their IC50 values.
1. CCOC(=O)/C=C/CC[C@H](NC(=O)c1ccccc1)C(=O)Nc1cccn(CC(=O)N[C@H](C(=O)O)[C@H](C)CC)c1=O [A59]
2. CCC(CC)CNC(=O)Cn1cccc(NC(=O)[C@H](CC/C=C/C(=O)OC)NC(C)=O)c1=O [A79]
3. CCOC(=O)/C=C/CC[C@H](NC(C)=O)C(=O)Nc1cccn(CC(=O)NCCC(CC)CC)c1=O [A42]

Given back:
1: 79.6; 2: 78.2; 3: 109

* * *

assay system: His tagged recombinant human tissue transglutaminase (His6-rh-TG2) (Homo sapiens, UniProt P21980)
Sequence (P21980 1-687): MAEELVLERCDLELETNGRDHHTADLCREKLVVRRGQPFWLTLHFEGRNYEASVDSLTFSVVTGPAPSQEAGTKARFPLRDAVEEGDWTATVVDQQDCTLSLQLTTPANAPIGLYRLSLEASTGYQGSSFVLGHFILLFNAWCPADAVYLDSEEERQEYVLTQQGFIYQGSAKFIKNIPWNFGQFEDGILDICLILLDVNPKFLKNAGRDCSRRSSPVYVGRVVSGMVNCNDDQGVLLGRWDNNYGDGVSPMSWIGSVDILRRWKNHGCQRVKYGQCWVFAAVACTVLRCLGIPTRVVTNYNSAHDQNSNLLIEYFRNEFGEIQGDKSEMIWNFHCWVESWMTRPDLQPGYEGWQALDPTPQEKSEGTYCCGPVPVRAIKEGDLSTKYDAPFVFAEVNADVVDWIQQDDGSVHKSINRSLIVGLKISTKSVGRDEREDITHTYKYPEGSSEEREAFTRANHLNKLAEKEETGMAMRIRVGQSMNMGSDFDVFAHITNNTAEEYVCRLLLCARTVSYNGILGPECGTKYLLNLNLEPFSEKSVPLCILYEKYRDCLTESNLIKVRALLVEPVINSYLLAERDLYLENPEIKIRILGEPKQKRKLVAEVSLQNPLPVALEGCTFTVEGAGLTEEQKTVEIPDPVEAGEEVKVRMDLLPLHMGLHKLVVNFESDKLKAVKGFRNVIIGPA
assay comment: Inactivation of human tissue transglutaminase, fluorescence assay with Abz-APE(CAD-DNP)QEA-OH
condition notes: substrate Abz-APE(CAD-DNP)QEA-OH, 37° C., pH=7.5
observable: IC50 (nM)
Numbers only, in nM.

Look over these answered cases.
CCC(CC)CNC(=O)Cn1cccc(NC(=O)[C@@H](CC/C=C/C(=O)OC)NC(=O)c2cncn2C)c1=O; 54700
CCOC(=O)/C=C/CC[C@H](NC(=O)CCC(=O)O)C(=O)Nc1cccn(CC(=O)N[C@@H](CC(C)C)C(=O)OC)c1=O; 194
CCOC(=O)/C=C/CC[C@H](NC(=O)c1ccccc1)C(=O)Nc1cccn(CC(=O)N[C@H](C(=O)O)[C@H](C)CC)c1=O; 43

Lab note: next compound to report on.
Asked: State the recorded IC50 for this entry: COC(=O)/C=C/CC[C@H](NC(C)=O)C(=O)Nc1cccn(CC(=O)N2CCC(C(F)(F)F)CC2)c1=O
Given back: 132

* * *

Give log10(IC50) for every item shown.
assay system: His tagged recombinant human tissue transglutaminase (His6-rh-TG2) (Homo sapiens, UniProt P21980)
Sequence (P21980 1-687): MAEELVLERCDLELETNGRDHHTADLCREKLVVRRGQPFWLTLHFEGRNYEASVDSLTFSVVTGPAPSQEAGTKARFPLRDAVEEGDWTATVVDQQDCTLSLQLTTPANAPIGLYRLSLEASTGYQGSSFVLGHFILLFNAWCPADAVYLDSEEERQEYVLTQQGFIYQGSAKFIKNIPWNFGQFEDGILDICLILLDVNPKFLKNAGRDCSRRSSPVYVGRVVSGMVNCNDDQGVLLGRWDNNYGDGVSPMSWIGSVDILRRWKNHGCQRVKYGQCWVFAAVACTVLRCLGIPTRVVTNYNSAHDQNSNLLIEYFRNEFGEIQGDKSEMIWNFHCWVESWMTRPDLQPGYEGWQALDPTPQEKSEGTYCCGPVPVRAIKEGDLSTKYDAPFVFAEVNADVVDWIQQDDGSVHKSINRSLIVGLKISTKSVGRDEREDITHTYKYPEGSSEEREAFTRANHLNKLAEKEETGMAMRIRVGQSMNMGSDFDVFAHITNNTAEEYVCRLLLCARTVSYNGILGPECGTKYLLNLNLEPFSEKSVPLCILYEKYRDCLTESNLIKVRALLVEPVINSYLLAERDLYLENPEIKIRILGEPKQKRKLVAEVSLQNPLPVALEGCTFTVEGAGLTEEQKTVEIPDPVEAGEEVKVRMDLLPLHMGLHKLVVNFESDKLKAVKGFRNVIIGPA
assay comment: Inactivation of human tissue transglutaminase, fluorescence assay with Abz-APE(CAD-DNP)QEA-OH
condition notes: substrate Abz-APE(CAD-DNP)QEA-OH, 37° C., pH=7.5
Annotation: log10 of IC50, nM basis.

CC[C@@H](C)[C@H](NC(=O)Cn1cccc(NC(=O)[C@H](CC/C=C/C(=O)OC)NC(=O)c2cncn2C)c1=O)C(=O)O; 1.73
CCOC(=O)/C=C/CC[C@H](NC(=O)CCC(=O)O)C(=O)Nc1cccn(CC(=O)NCc2ccccc2C(F)(F)F)c1=O; 2.38
CCOC(=O)/C=C/CC[C@H](NC(=O)CCNC(N)=O)C(=O)Nc1cccn(CC(=O)NCCC(C)C)c1=O; 2.14
CCOC(=O)/C=C/CC[C@H](NC(=O)c1ccc(N2CCN(C)CC2)cc1)C(=O)Nc1cccn(CC(=O)NCCC(C)C)c1=O; 2.31

Now for another entry.
Asked: Field request: log10(IC50) | item: CC(=O)N[C@@H](CC/C=C/C(=O)OCc1ccccc1)C(=O)Nc1cccn(CC(=O)NCCC(C)C)c1=O
Given back: 2.80

* * *

Answer each item with its documented pIC50.
assay system: His tagged recombinant human tissue transglutaminase (His6-rh-TG2) (Homo sapiens, UniProt P21980)
assay comment: Inactivation of human tissue transglutaminase, fluorescence assay with Abz-APE(CAD-DNP)QEA-OH
condition notes: substrate Abz-APE(CAD-DNP)QEA-OH, 37° C., pH=7.5
Numbers only, as −log10 of the molar value.

CCOC(=O)/C=C/CC[C@H](NC(=O)OCc1ccccc1)C(=O)Nc1cccn(CC(=O)NCCc2c(C)cc(C)cc2C)c1=O [A1]; 7.00

Hi team, please reply with pIC50 for each item in this list.
1. CCOC(=O)/C=C/CC[C@H](NC(=O)CCC(=O)O)C(=O)Nc1cccn(CC(=O)NCCc2cccs2)c1=O [A47]
2. CC(=O)N[C@@H](CC/C=C/C(=O)OC(C)C)C(=O)Nc1cccn(CC(=O)NCCC(C)C)c1=O [A6]
3. CCOC(=O)/C=C/CC[C@H](NC(C)=O)C(=O)Nc1ccc(C)n(CC(=O)NCCC(C)C)c1=O [A4]

Given back:
1: 6.32; 2: 6.27; 3: 6.92

Count: 3. Required value per item: pIC50.
1. CCOC(=O)/C=C/CC[C@H](NC(C)=O)C(=O)Nc1cccn(CC(=O)N2CCCC(C)C2)c1=O (stereo partly drawn) [A52]
2. CCC(CC)CNC(=O)Cn1cccc(NC(=O)[C@H](CC/C=C/C(=O)OC)NC(=O)c2ccccc2N)c1=O [A70, 2,2,2-trifluoroacetate]
3. CCOC(=O)/C=C/CC[C@H](NC(=O)c1cccnc1)C(=O)Nc1cccn(CC(=O)NCCC(C)C)c1=O [A16]

Given back:
1. 6.15
2. 7.09
3. 6.98

Please state pIC50 for every compound in the list that follows.
1. CCOC(=O)/C=C/CC[C@H](NC(C)=O)C(=O)Nc1cccn(CC(=O)NCC(CC)CC)c1=O [A62]
2. CCOC(=O)/C=C/CC[C@H](NC(=O)OCc1ccccc1)C(=O)Nc1ccc(C)n(CC(=O)NCCC(C)C)c1=O [A2]

Given back:
1: 7.03; 2: 7.00

These data points were gathered from patent US9434763B2.
